Can you tell me pIC50 for the items I'm about to list?
test system: IFNγ; assay: Cytokine assay: IFNγ release from PHA-L stimulated human PBMCs; type: cell-based; details: Homo sapiens, PBMC
Answers are plain numbers, as −log10 of the molar value.

- compound: "COc1ccc(-c2cccc(C3COB(O)C3)c2)cc1OC1CCC1 (stereo not shown)"
  pIC50: 8.35

// input: 8 compounds below; output: pIC50 for each
1. CCOc1ccc(-c2cncc(C3COB(O)C3)c2)cc1OCC (stereo not shown) [Example 96]
2. COc1ccc(-c2cncc(C3COB(O)C3)n2)cc1OC1CCCC1 (single isomer, unassigned) [Example 126]
3. COc1ccc(-c2cncc(C3COB(O)C3)c2)cc1OC(C)C (stereo not shown)
4. CCOc1c(OC)ccc(-c2cccc(C3COB(O)C3)c2)c1F (stereo not shown)
5. CCCOc1cc(-c2cncc(C3=CB(O)OC3)c2)ccc1OC
6. CCCOc1c(OC)ccc(-c2cccc(C3COB(O)C3)n2)c1C#N (single isomer, unassigned) [Example 87]
7. CCCOc1cc(-c2cc(C3COB(O)C3)cc(CO)n2)ccc1OC (single isomer, unassigned; enantiomer 1) [Example 180]
8. CCOc1c(OC)cc(F)c(-c2cncc(C3COB(O)C3)c2)c1F (single isomer, unassigned; enantiomer 1) [Example 164]

1: 8.28; 2: 9.10; 3: 8.81; 4: 8.26; 5: 8.04; 6: 8.52; 7: 8.18; 8: 8.10

Quick request: pIC50 for each listed item, please.
1. CCCOc1c(OC)ccc(-c2cncc(C3COB(O)C3)n2)c1F (stereo not shown) [Example 215]
2. COc1cc(-c2ccc(OC)c(OC3CCCC3)c2)nc(C2COB(O)C2)n1 (stereo not shown) [Example 175]
3. COc1ccc(-c2cncc(C3COB(O)C3)c2)cc1OC1CCCC1 (stereo not shown)
4. CCCOc1cc(-c2cccc(C3COB(O)C3)n2)ccc1OC (single isomer, unassigned) [Example 128]
5. CCOc1c(OC)ccc(-c2cncc(C3COB(O)C3)c2)c1F (single isomer, unassigned) [Example 74]
6. CCCOc1c(OC)ccc(-c2cncc(C3COB(O)C3)c2)c1OC (single isomer, unassigned; enantiomer 1) [Example 168]
7. CCOc1cc(-c2nc(C3COB(O)C3)cs2)c(F)cc1OC (single isomer, unassigned) [Example 92]

8.66
8.36
9.06
8.65
8.57
9.19
8.57

I have 3 compounds here; please give me pIC50 for each one.
1. CCCOc1cc(-c2cncc(C3COB(O)C3)c2)ccc1SC (single isomer, unassigned)
2. COc1ccc(-c2cccc(C3COB(O)C3)n2)cc1OC1CCCC1 (stereo not shown)
3. CCCOc1cc(-c2nc(OC)cc(C3COB(O)C3)n2)ccc1OC (single isomer, unassigned; enantiomer 2) [Example 225]

1. 7.67
2. 8.27
3. 8.36
